This collection of values is drawn from PubChem BioAssay AID1665.

Would you kindly list cell count for each of these compounds?
protocol_details: beta-catenin nuclear localization change in HeLa – imaging, HeLa cells, immunofluorescence, high-content, primary screen (AID 1665)
assay_setup: at 5 µM; HeLa beta-catenin nuclear translocation, measured here: cell count, cytotoxicity flag
Out of some 190,000 compounds screened, about 590 (0.31%) were called active. This excerpt belongs to a sample that is enriched for actives.
Please reply with the bare figure in cells and do not write the unit itself.

Query string: Value lookup for cell count; key = "Cc1cc(=O)[nH]c(S)c1C#N"
Result string: 1290

Query string: Now consider C=CCOC(=O)C1=C(C)NC(SCC(=O)OCC)=C(C#N)C1c1ccc(C)cc1 (stereo not given) .
Result string: 1350

Query string: Now consider "C=CCSC(CC)(CC)C(N)=O" .
Result string: 1320

Query string: Now consider "CCC1=NN2C(=N)/C(=C/c3cc(C)n(-c4ccccc4)c3C)C(=O)N=C2S1" .
Result string: 1350

Query string: Now consider "Cc1ccc(S(=O)(=O)NC(=O)N2CCCC(C)(C)C2)cc1" .
Result string: 1150

Query string: Now consider "COc1ccc(C)c(Cn2c(-c3nonc3N)nc3ccccc32)c1" .
Result string: 720

Query string: Now consider "Cc1ccc(C(=O)Nc2nc(N)n(-c3ccccc3)n2)cc1" .
Result string: 1180

Query string: Now consider Cc1ccc(C2CC(=O)NC(SCC(=O)OCc3ccccc3)=C2C#N)o1 (stereo not given) .
Result string: 922

Query string: Now consider "COc1ccc(CCNC(=O)C(=O)Nc2ccc3nc4n(c(=O)c3c2)CCCCC4)cc1OC" .
Result string: 1400

Query string: Now consider "O=[N+]([O-])c1cccc2ncccc12" .
Result string: 1340

Query string: Now consider "Cn1c(SCC(=O)N2CCOCC2)nnc1-c1ccc2ncccc2c1" .
Result string: 1320

Query string: Now consider "COc1ccc(C(=O)N/N=C2\CCS(=O)(=O)c3ccc(F)cc32)cc1OC" .
Result string: 1320

Query string: Now consider "Brc1ccc(-c2nn[nH]n2)cc1" .
Result string: 1320

Query string: Now consider "Cc1ccc(S(=O)(=O)C2(S(=O)(=O)c3ccc(C)cc3)CCCC2)cc1" .
Result string: 297

Query string: Now consider "Nc1nonc1-c1nc2ccccc2n1Cc1ccc(F)cc1" .
Result string: 778

Query string: Now consider CC(=O)NC1=NN(C(C)=O)C(C)(c2ccc(Cl)s2)S1 (stereo not given) .
Result string: 101

Query string: Now consider "O=c1[nH]nc(SCCS(=O)(=O)c2ccc(F)cc2)n1-c1ccccc1C(F)(F)F" .
Result string: 1270

Query string: Now consider "Nc1nonc1-c1nc2ccccc2n1CCC(=O)O" .
Result string: 899

Query string: Now consider CCOC(=O)CSC1=C(C#N)C(c2sccc2C)CC(=O)N1 (stereo not given) .
Result string: 658

Query string: Now consider "O=C(NC1=NCCS1)c1ccc(Cl)s1" .
Result string: 998

Query string: Now consider "COc1ccc(NC2=CC(=S)NC(C)(C)C2)cc1" .
Result string: 1130

Query string: Now consider "Cc1cc(=O)[nH]c(N/N=C/c2ccc3c(c2)OCCO3)n1" .
Result string: 1320

Query string: Now consider "NC(=O)N/N=C\c1cccs1" .
Result string: 1280

Query string: Now consider "Cc1ccc(-c2nc3ccccc3[nH]c2=O)cc1" .
Result string: 1310

Query string: Now consider "Nc1ccc2nn(-c3ccc(Cl)cc3)nc2c1" .
Result string: 1360
